experiment: NCI Yeast Anticancer Drug Screen. Data for the cln2 rad14 strain (AID 165);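 further: 0% = growth equal to vehicle treated cultures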; settings: S. cerevisiae cln2 rad14 strain, at 50.0 µM
The panel holds about 79,000 compounds, 15% with a hit somewhere; the sample as a whole holds those more often. The source made the active and inactive calls. No stated cut-off is given here; in the data, active means growth inhibition above about 70%; inactive means the rest.
Field 'call' accepts active, inactive

Call for entry Cc1nc(Nc2ccc(Cl)cc2)sc1C(=O)Nc1cccc2c(=O)[nH][nH]c(=O)c12 : active

Call for entry CCCCCCCCCCCc1nnc(N)o1 : active

Call for entry CC1OC(C)C(O)C2=C1C(=O)c1ccccc1C2=O (stereo not given) : inactive

Call for entry CN1c2ccccc2C(=O)NC1c1ccc([N+](=O)[O-])s1 (stereo not given) : inactive

Call for entry CCCCCCCCCCCCCCCCS(=O)(=O)Cl : inactive

Call for entry CCCCCN(C(=O)CCl)c1ccccc1 : inactive

Call for entry COC1=CC(=O)[C@H]2CC(C)=CC[C@]2(C)C1=O : active

Call for entry CCO/C=C1/N=C(c2cc(Cl)cc([N+](=O)[O-])c2)OC1=O : inactive

Call for entry O=c1c(SSc2coc3ccccc3c2=O)coc2ccccc12 : active

Call for entry CCC(C(c1ccc(Cl)cc1)c1ccc(Cl)c(Cl)c1)[N+](=O)[O-] (stereo not given) : inactive

Call for entry CCCCCC/C=C\CCCCCCCCCc1c(O)c(OC)cc(O)c1CN(C)C : active

Call for entry CN(C)C=Nc1ccc2nonc2c1 : inactive

Call for entry CN(C)CC1CCc2ccc3ccccc3c2C1=O (stereo not given) : inactive

Call for entry O=[N+]([O-])c1nccn1CCCNCCCn1ccnc1[N+](=O)[O-] : inactive

Call for entry CC(=O)Nc1ccc(/C=N\NC(=O)c2ccco2)cc1 : inactive

Call for entry Cc1ccc(C2(O)c3ccccc3-c3ccccc32)cc1 : active

Call for entry COc1cc(NCCCCCNC2CCCCC2)c2ncccc2c1 : inactive

Call for entry COc1ccc2c(c1)nc1cc(Cl)ccc1[n+]2C : inactive

Call for entry O=C(O)/C(=C\c1ccc(O)cc1)c1cccc2ccccc12 : active

Call for entry CCCOC(=O)C(S)C(S)C(=O)OCCC (stereo not given) : inactive

Call for entry CC1(C)CC(=O)C(CSC(=O)c2ccccc2)=C(O)C1 : inactive

Call for entry O=NNc1ncccc1OCc1ccccc1 : inactive

Call for entry CCOC(=O)c1ccc(N(CCC(O)CN=[N+]=[N-])S(=O)(=O)c2ccc(C)cc2)cc1 (stereo not given) : inactive

Call for entry NC1CCCCC1N.O=S(=O)([O-])CCCN1CCOCC1.O=S(=O)([O-])CCCN1CCOCC1.[Pt+4] : active

Call for entry S=C1NCCNC(=S)SS1 : inactive

* * *

Field: growth inhibition. Provide a value for each of the compounds that follow.
assay: NCI Yeast Anticancer Drug Screen. Data for the mlh1 rad18 strain (AID 175); details: S. cerevisiae mlh1 rad18 strain growth inhibition; at 50.0 µM; hits give high values
This is part of a sample that, as a whole, favours compounds with a hit. Of some 79,000 tested, about 15% had one in any assay.
Express the result in % but write the number alone.

Any idea what its growth inhibition is? The compound is CN1c2ccccc2S(=O)(=O)n2c(CCc3ccccc3)nnc21 32.5

Any idea what its growth inhibition is? The compound is CC1(c2ccccc2)NC(=O)N(CC(=O)N(c2ccccc2)c2ccccc2)C1=O (configuration not stated) 52.1

Any idea what its growth inhibition is? The compound is CSC(=S)SC(SC)S(C)(=O)=O (configuration not stated) 99.3

Any idea what its growth inhibition is? The compound is CC(C)COP(=O)(OCC(C)C)C(NS(=O)(=O)c1ccccc1)(C(F)(F)F)C(F)(F)F 90.2

Any idea what its growth inhibition is? The compound is COc1cc(/C=C/C(=N\NC(=O)c2ccccc2)c2sc(Nc3ccc(Cl)c(Cl)c3)nc2C)ccc1O 88.9

Any idea what its growth inhibition is? The compound is Nc1c(Cl)[nH]c(C(F)(F)F)nc1=S 23.3

Any idea what its growth inhibition is? The compound is OCCN1COc2cc3c(cc2C1)OCN(CCO)C3 16.2

Any idea what its growth inhibition is? The compound is Cc1cc(N(CCOS(C)(=O)=O)CCOS(C)(=O)=O)ccc1C=Nc1ccccc1C(=O)O 95.1

Any idea what its growth inhibition is? The compound is Cc1cc2c(C(C)C)c(O)c(O)c3coc(/c1=c1/c(C)cc4c(C(C)C)c(=O)c(=O)c5coc1c45)c32 99.2

Any idea what its growth inhibition is? The compound is CNCC(O)c1cccc(O)c1 (configuration not stated) 31

Any idea what its growth inhibition is? The compound is CCOC(=O)c1cn(CC)c2cc(-n3cccc3)ccc2c1=O 47.2

Any idea what its growth inhibition is? The compound is CC1=NOC(=O)C1N=Nc1ccc(Br)cc1C (configuration not stated) 90.5

Any idea what its growth inhibition is? The compound is CCOC(=O)c1ccc2c(c1)Cc1cc([N+](=O)[O-])ccc1-2 58.1

Any idea what its growth inhibition is? The compound is COc1ccc(C2CC(c3sc(Nc4ccc(C)cc4)nc3C)=NN2)cc1 (configuration not stated) 59.9

Any idea what its growth inhibition is? The compound is COc1cccc2c1OC(c1ccc(Cl)cc1)C([N+](=O)[O-])=C2 (configuration not stated) 84

Any idea what its growth inhibition is? The compound is C/C(CCn1[nH]c(=O)ccc1=O)=N\Nc1ccc([N+](=O)[O-])cc1[N+](=O)[O-] 73.2

Any idea what its growth inhibition is? The compound is S=c1sc2ccccc2n1C=Nc1ccccc1 98.3

Any idea what its growth inhibition is? The compound is O=C(/C=C(\OB(F)F)c1ccccc1)c1ccccc1 97.9

Any idea what its growth inhibition is? The compound is O=c1c(-c2ccccc2)c(-c2ccccc2)c1=O 85.5

Any idea what its growth inhibition is? The compound is CC(C)C1=CC23CCC4C(C)(C(=O)O)CCCC4(C)C2CC1c1c(O)ccc(O)c13 (configuration not stated) 99

Any idea what its growth inhibition is? The compound is CN(NC(=O)/C(=C/c1ccc2c(c1)OCO2)NC(=O)c1ccccc1)c1ccnc2cc(Cl)ccc12 87.7

Any idea what its growth inhibition is? The compound is COC1=CC(=O)C(C#CCOCc2ccccc2)=CC1=O 98.8
